target: DNA gyrase subunit B (Escherichia coli, UniProt P0AES6); assay: Inhibition of Escherichia coli GyrB (1 to 220 residues) expressed in Escherichia coli BL21(DE3)
observed.property: IC50 (nM)
Record the value in nM, omitting the unit from your answer.

Guide cases for IC50, answers given:
item_smiles=CCNC(=O)Nc1cc(-c2nc(C(F)(F)F)cs2)c(-c2cc(C(=O)O)ccc2N2C3CCC2CN(C)C3)cn1 value_observed=9
item_smiles=CCNC(=O)Nc1cc(-c2nc(C(F)(F)F)cs2)c(-c2cc3ncccc3nc2N2CCN(C)CC2)cn1 value_observed=3
item_smiles=CCNC(=O)Nc1cc(-c2nc(C(F)(F)F)cs2)c(-c2cncc(C(=O)O)c2)cn1 value_observed=6
item_smiles=CCNC(=O)Nc1cc(-c2nc(C3CC3)cs2)c(-c2cc(-c3n[nH]c(=O)o3)cnc2N2C3CCC2CN(C)C3)cn1 value_observed=2
item_smiles=CCNC(=O)Nc1cc(-c2nc(C(F)(F)F)cs2)c(-c2cc(-c3n[nH]c(=O)o3)cnc2N2[C@@H]3CC[C@H]2C[C@@H](N)C3)cn1 value_observed=4
item_smiles=CCNC(=O)Nc1cc(-c2nc(C(F)(F)F)cs2)c(-c2cc(-c3nnn[nH]3)cnc2N2C3CCC2CN(C)C3)cn1 value_observed=9
item_smiles=CCNC(=O)Nc1cc(-c2nc(C(F)(F)F)cs2)c(-c2cc3ncccc3nc2N2[C@@H]3CC[C@H]2C[C@@H](N)C3)cn1 value_observed=3

Requested read-out: IC50. Entry: `CCNC(=O)Nc1cc(-c2nc(C(F)(F)F)cs2)c(-c2cnc3cccnc3c2)cn1` 4

###

test system: Pseudomonas aeruginosa; assay: Antibacterial activity against Pseudomonas aeruginosa ARC3504 after 24 hrs by broth microdilution method; type: functional; details: ARC3504, 24 h
Reported MIC values follow for various compounds
Record the value in mg/L, omitting the unit from your answer.

Requested read-out: MIC. Entry: `CCNC(=O)Nc1cc(-c2nc(C(F)(F)F)cs2)c(-c2cc3ncccc3nc2N2C3CCC2CN(C)C3)cn1` 32

Requested read-out: MIC. Entry: C[C@@H](O)[C@H]1C(=O)N2C(C(=O)O)=C(S[C@@H]3CN[C@H](C(=O)N(C)C)C3)[C@H](C)[C@H]12 [MEROPENEM] 4

Requested read-out: MIC. Entry: `CCNC(=O)Nc1cc(-c2nc(C(F)(F)F)cs2)c(-c2cc(-c3n[nH]c(=O)o3)cnc2N2C3CCC2CN(C)C3)cn1` 8

Requested read-out: MIC. Entry: `CCNC(=O)Nc1cc(-c2nc(C3CC3)cs2)c(-c2cc(-c3n[nH]c(=O)o3)cnc2N2C3CCC2CN(C)C3)cn1` 4

###

Reported MIC values follow for various compounds
test system: Pseudomonas aeruginosa; experiment: Antibacterial activity against Pseudomonas aeruginosa ARC3612 after 24 hrs by broth microdilution method; type: functional; conditions: ARC3612, 24 h
Record the value in µg/mL, omitting the unit from your answer.

compound="C[C@@H](O)[C@H]1C(=O)N2C(C(=O)O)=C(S[C@@H]3CN[C@H](C(=O)N(C)C)C3)[C@H](C)[C@H]12 [MEROPENEM]" tested_target="Pseudomonas aeruginosa" observed_property=MIC value_observed=32
compound=CCNC(=O)Nc1cc(-c2nc(C(F)(F)F)cs2)c(-c2cc3ncccc3nc2N2C3CCC2CN(C)C3)cn1 tested_target="Pseudomonas aeruginosa" observed_property=MIC value_observed=32
compound=CCNC(=O)Nc1cc(-c2nc(C3CC3)cs2)c(-c2cc(-c3n[nH]c(=O)o3)cnc2N2C3CCC2CN(C)C3)cn1 tested_target="Pseudomonas aeruginosa" observed_property=MIC value_observed=4

Kindly consider the entry below.
Notebook: pull reported MIC for Pseudomonas aeruginosa, entry `CCNC(=O)Nc1cc(-c2nc(C(F)(F)F)cs2)c(-c2cc(-c3n[nH]c(=O)o3)cnc2N2C3CCC2CN(C)C3)cn1` 8

###

assay: Thermodynamic solubility of the compound at pH 7.4; type: physicochemical; settings: buffer, read-out: Therm_solubility
observed.property: solubility thermodynamic (µM)
Record the value in µM, omitting the unit from your answer.

item_smiles=CCNC(=O)Nc1cc(-c2nc(C(F)(F)F)cs2)c(-c2cc(-c3n[nH]c(=O)o3)cnc2N2C3CCC2CN(C)C3)cn1 value_observed=1490

Requested read-out: solubility thermodynamic. Entry: `CCNC(=O)Nc1cc(-c2nc(C3CC3)cs2)c(-c2cc(-c3n[nH]c(=O)o3)cnc2N2C3CCC2CN(C)C3)cn1` 65.8

###

system: Acinetobacter baumannii; experiment: Antibacterial activity against Acinetobacter baumannii ARC2674 after 24 hrs by broth microdilution method; format: functional; conditions: ARC2674, 24 h
observed.property: MIC
Please answer using a numeric value trailed by its unit.

Guide cases for MIC, answers given:
molecule=CCNC(=O)Nc1cc(-c2nc(C3CC3)cs2)c(-c2cc(-c3n[nH]c(=O)o3)cnc2N2C3CCC2CN(C)C3)cn1 value_observed="4 µg/mL"
molecule="C[C@@H](O)[C@H]1C(=O)N2C(C(=O)O)=C(S[C@@H]3CN[C@H](C(=O)N(C)C)C3)[C@H](C)[C@H]12 [MEROPENEM]" value_observed="16 µg/mL"
molecule=CCNC(=O)Nc1cc(-c2nc(C(F)(F)F)cs2)c(-c2cc(-c3n[nH]c(=O)o3)cnc2N2C3CCC2CN(C)C3)cn1 value_observed="4 µg/mL"

Requested read-out: MIC. Entry: `CCNC(=O)Nc1cc(-c2nc(C(F)(F)F)cs2)c(-c2cc3ncccc3nc2N2C3CCC2CN(C)C3)cn1` 4 µg/mL

###

system: Candida albicans; test: Antifungal activity against Candida albicans ATCC 90028 after 24 hrs by broth microdilution method; assay type: functional; settings: ATCC 90028, 24 h
Reported MIC values follow for various compounds

Guide cases for MIC, answers given:
item_smiles=CC(=O)NC[C@H]1CN(c2ccc(N3CCOCC3)c(F)c2)C(=O)O1 value_observed="> 64 µg/mL"
item_smiles=CCNC(=O)Nc1cc(-c2nc(C(F)(F)F)cs2)c(-c2cc(-c3n[nH]c(=O)o3)cnc2N2C3CCC2CN(C)C3)cn1 value_observed="> 64 µg/mL"
item_smiles=CCNC(=O)Nc1cc(-c2nc(C3CC3)cs2)c(-c2cc(-c3n[nH]c(=O)o3)cnc2N2C3CCC2CN(C)C3)cn1 value_observed="> 64 µg/mL"
item_smiles=CCNC(=O)Nc1cc(-c2nc(C(F)(F)F)cs2)c(-c2cc3ncccc3nc2N2C3CCC2CN(C)C3)cn1 value_observed="> 64 µg/mL"

Kindly consider the entry below.
Requested read-out: MIC. Entry: `CC(C)(O/N=C(\C(=O)N[C@@H]1C(=O)N2C(C(=O)[O-])=C(C[n+]3ccccc3)CS[C@H]12)c1csc(N)n1)C(=O)O` > 32 µg/mL

###

Reported pIC50 values follow for various molecules
target: DNA topoisomerase 4 subunit B (Escherichia coli K-12); assay: Inhibition of Escherichia coli ParE
Units for pIC50: none; it is -log10 of a concentration expressed in mol/L.

Guide cases for pIC50, answers given:
molecule=CCNC(=O)Nc1cc(-c2nc(C(F)(F)F)cs2)c(-c2cc3ncccc3nc2N2C3CCC2CN(C)C3)cn1 value_observed=7.85
molecule=CCNC(=O)Nc1cc(-c2nc(C(F)(F)F)cs2)c(-c2cc(C(=O)NS(C)(=O)=O)cnc2N2C3CCC2CN(C)C3)cn1 value_observed=8.05

Notebook: pull reported pIC50 for DNA topoisomerase 4 subunit B (Escherichia coli K-12), entry `CCNC(=O)Nc1cc(-c2nc(C(F)(F)F)cs2)c(-c2cnc3cccnc3c2)cn1` 5.70

Notebook: pull reported pIC50 for DNA topoisomerase 4 subunit B (Escherichia coli K-12), entry `CCNC(=O)Nc1cc(-c2nc(C(F)(F)F)cs2)c(-c2cc3ncccc3nc2N2CCN(C)CC2)cn1` 6.40

Notebook: pull reported pIC50 for DNA topoisomerase 4 subunit B (Escherichia coli K-12), entry `CCNC(=O)Nc1cc(-c2nc(C(F)(F)F)cs2)c(-c2cc(C(=O)O)ccc2N2C3CCC2CN(C)C3)cn1` 8.00

Notebook: pull reported pIC50 for DNA topoisomerase 4 subunit B (Escherichia coli K-12), entry `CCNC(=O)Nc1cc(-c2nc(C3CC3)cs2)c(-c2cc(-c3n[nH]c(=O)o3)cnc2N2C3CCC2CN(C)C3)cn1` 8.52

###

target: DNA topoisomerase 4 subunit B (Escherichia coli K-12, UniProt P20083); assay: Inhibition of Escherichia coli ParE
Sequence (P20083 whole entry): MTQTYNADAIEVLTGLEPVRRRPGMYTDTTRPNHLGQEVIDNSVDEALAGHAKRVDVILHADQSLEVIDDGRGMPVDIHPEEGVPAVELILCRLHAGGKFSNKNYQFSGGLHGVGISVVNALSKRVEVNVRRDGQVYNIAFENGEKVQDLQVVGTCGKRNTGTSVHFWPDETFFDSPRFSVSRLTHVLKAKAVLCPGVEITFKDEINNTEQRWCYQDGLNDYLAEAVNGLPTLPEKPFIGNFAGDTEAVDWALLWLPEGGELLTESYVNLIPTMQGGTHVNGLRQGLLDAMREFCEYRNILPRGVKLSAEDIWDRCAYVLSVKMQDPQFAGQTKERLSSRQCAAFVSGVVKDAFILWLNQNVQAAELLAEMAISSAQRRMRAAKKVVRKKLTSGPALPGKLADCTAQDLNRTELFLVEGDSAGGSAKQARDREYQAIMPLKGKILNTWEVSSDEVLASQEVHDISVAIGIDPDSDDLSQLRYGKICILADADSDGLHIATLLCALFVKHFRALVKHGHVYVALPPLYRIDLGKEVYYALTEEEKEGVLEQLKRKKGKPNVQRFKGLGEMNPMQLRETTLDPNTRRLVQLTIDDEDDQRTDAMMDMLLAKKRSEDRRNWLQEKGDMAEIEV
Reported IC50 values follow for various compounds
Record the value in nM, omitting the unit from your answer.

Guide cases for IC50, answers given:
compound=CCNC(=O)Nc1cc(-c2nc(C(F)(F)F)cs2)c(-c2cc3ncccc3nc2N2CC3CCCC(C2)N3)cn1 tested_target="DNA topoisomerase 4 subunit B (Escherichia coli K-12, UniProt P20083)" value_observed=25
compound=CCNC(=O)Nc1cc(-c2nc(C(F)(F)F)cs2)c(-c2cc(-c3n[nH]c(=O)o3)cnc2N2C3CCC2CN(C)C3)cn1 tested_target="DNA topoisomerase 4 subunit B (Escherichia coli K-12, UniProt P20083)" value_observed=4
compound=CCNC(=O)Nc1cc(-c2nc(C(F)(F)F)cs2)c(-c2cncc(C(=O)O)c2)cn1 tested_target="DNA topoisomerase 4 subunit B (Escherichia coli K-12, UniProt P20083)" value_observed=700
compound=CCNC(=O)Nc1cc(-c2nc(C(F)(F)F)cs2)c(-c2cc(C(=O)O)cnc2N2C3CCC2CN(C)C3)cn1 tested_target="DNA topoisomerase 4 subunit B (Escherichia coli K-12, UniProt P20083)" value_observed=8
compound=CCNC(=O)Nc1cc(-c2nc(C(F)(F)F)cs2)c(-c2cc(-c3nnn[nH]3)cnc2N2C3CCC2CN(C)C3)cn1 tested_target="DNA topoisomerase 4 subunit B (Escherichia coli K-12, UniProt P20083)" value_observed=4
compound=CCNC(=O)Nc1cc(-c2nc(C(F)(F)F)cs2)c(-c2cc3ncccc3nc2N2C3CC2CN(C)C3)cn1 tested_target="DNA topoisomerase 4 subunit B (Escherichia coli K-12, UniProt P20083)" value_observed=200

Requested read-out: IC50. Entry: `CCNC(=O)Nc1cc(-c2nc(C(F)(F)F)cs2)c(-c2cc3ncccc3nc2N2CCC(N)CC2)cn1` 49

Requested read-out: IC50. Entry: CCNC(=O)Nc1cc(-c2nc(C(F)(F)F)cs2)c(-c2cc3ncccc3nc2N2CC3CCC2CN3)cn1 (centres undefined) 21

Requested read-out: IC50. Entry: `CCNC(=O)Nc1cc(-c2nc(C(F)(F)F)cs2)c(-c2cc(-c3n[nH]c(=O)o3)cnc2N2[C@@H]3CC[C@H]2C[C@@H](N)C3)cn1` 12

The measured values listed here are drawn from ChEMBL document CHEMBL4270612.
